molecular target: Prostaglandin E synthase (Bos taurus) (UniProt Q95L14); assay: Ability to inhibit prostaglandin synthetase ([3H]PGE2 synthesis) from [3H]arachidonic acid in bovine seminal vesicles
Sequence (Q95L14 whole entry): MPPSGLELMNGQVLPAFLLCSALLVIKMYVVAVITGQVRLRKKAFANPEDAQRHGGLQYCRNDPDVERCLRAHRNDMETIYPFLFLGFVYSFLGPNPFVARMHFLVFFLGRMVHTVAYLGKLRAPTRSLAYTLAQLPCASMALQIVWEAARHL
I'd be grateful if you could share measured log10(ID50) for these entries.
For clarity, the numbers are log10 values of ID50 expressed in mg/L.

Worked examples, 7 compounds total:
                                   compound                              assay_system  property_name  number
0  Cc1cc(CC(=O)O)n(C)c1C(=O)c1ccc(Cl)cc1 [ZOMEPIRAC]  Prostaglandin E synthase (Bos taurus) (UniProt Q95L14)    log10(ID50)   -0.22
1  O=C(c1ccccc1)c1cccc2c1SCC2C(=O)O (stereo not given)  Prostaglandin E synthase (Bos taurus) (UniProt Q95L14)    log10(ID50)    0.08
2  O=C(c1ccccc1)c1cccc2c1COC2C(=O)O (stereo not given)  Prostaglandin E synthase (Bos taurus) (UniProt Q95L14)    log10(ID50)    0.70
3  O=C(c1ccccc1)c1cc(Cl)cc2c1SCC2C(=O)O (stereo not given)  Prostaglandin E synthase (Bos taurus) (UniProt Q95L14)    log10(ID50)   -0.10
4  O=C(c1ccccc1)c1cc(Cl)cc2c1OCC2C(=O)O (stereo not given)  Prostaglandin E synthase (Bos taurus) (UniProt Q95L14)    log10(ID50)   -0.60
5  O=C(c1ccccc1)c1cc(Br)cc2c1SCC2C(=O)O (stereo not given)  Prostaglandin E synthase (Bos taurus) (UniProt Q95L14)    log10(ID50)    0.15
6  O=C(c1ccccc1)c1cccc2c1OCC2C(=O)O (stereo not given)  Prostaglandin E synthase (Bos taurus) (UniProt Q95L14)    log10(ID50)   -0.15

Turning to the following compound.
Record Cc1cc(C(=O)c2ccccc2)c2c(c1)C(C(=O)O)CO2 (stereo not given) , field log10(ID50): 0.30

----------
species: Mus musculus; assay: Analgesic activity tested by phenylquinone induced writhing test in mice; type: functional
Could you please mark 1 for values of ED50 below 1 mg/kg and 0 for values at or above it?

Look over these answered cases.
In [3]: df
Out[3]:
                                   compound  answer_label
0  O=C(c1ccccc1)c1cc(Cl)cc2c1[S+]([O-])CC2C(=O)O (configuration not stated)             0
1  O=C(c1ccccc1)c1cccc2c1COC2C(=O)O (configuration not stated)             0
2  O=C(c1cccs1)c1cc(Cl)cc2c1OCC2C(=O)O (configuration not stated)             0
3  Cc1cc(C(=O)c2ccccc2)c2c(c1)C(C(=O)O)CO2 (configuration not stated)             0
4  O=C(c1ccccc1)c1cc(Br)cc2c1SCC2C(=O)O (configuration not stated)             0

Please indicate whether the reported ED50 of O=C(c1ccccc1)c1cc(Cl)cc2c1SCC2C(=O)O (configuration not stated) is strictly below 1 mg/kg.
1

ED50 under 1 mg/kg? Item: Cc1cc(CC(=O)O)n(C)c1C(=O)c1ccc(Cl)cc1 [ZOMEPIRAC]
1

A record lists O=C(c1ccccc1)c1cc(Cl)cc2c1S(=O)(=O)CC2C(=O)O (configuration not stated) . Is its ED50 below 1 mg/kg?
0

I'd appreciate it if you could check whether O=C(c1ccccc1)c1cc(Cl)cc2c1OCC2C(=O)O (configuration not stated) has ED50 smaller than 1 mg/kg.
1

Given the entry O=C(c1ccccc1)c1cc(F)cc2c1OCC2C(=O)O (configuration not stated) , would its reported ED50 be below 1 mg/kg?
0

For this compound, is ED50 lower than 1 mg/kg? O=C(c1ccccc1)c1ccc2c(c1)C(C(=O)O)CS2 (configuration not stated)
0

Just wondering, is ED50 of O=C(c1ccccc1)c1cc(Br)cc2c1OCC2C(=O)O (configuration not stated) below 1 mg/kg?
0
